Origin of the recorded values: patent US20260069689A1

- Assayed System: SARS-COV-2 RBD extracellular domain expressed with a C-terminal mouse IgG2a Fc (SARS-CoV-2)
- Run Description: Biacore SPR, mAb captured on anti-hFc, 37 C
Measured koff, listed per entry.
Value expressed in s⁻¹; do not type the unit.

Return reported koff; argument: mAb14235 (antibody, V domains shown) VH: QITLKESGPTLVKPTQTLTLTCTFSGFSLNTGGVGVGWIRQPPGNALEWLALIYWDDDKRYNPSLKTRLTISKDTSKNQVVLTMTNMDPVDTATYFCAHLTIAVIVDFWGQGTLVTVSS VL: QSALTQPASVSGSPGQSITISCTATSSDVGTYNYVSWFQHHPGKAPKLMIYEVTNRPSGVSNRFSGSKSGNTASLTISGLQAEDEADYYCSSYTTTSIVFGGGTKLTVLG
6.68e-05
